Where do these numbers come from? They come from paper PMC3086652.

# Assay system: HLA A*6802 (Homo sapiens, UniProt P04439, A269V/D140Y/D185E/E176V/E277Q/E87N/F33Y/G231S/I121R/I166T/I218V/L180W/L300P/L318F/N151K/P208A/P217A/Q86R/R138H/R169H/S129P/T345S/V36M)
# Experiment summary: biochemical
# Type: binding
pIC50: −log10 of the molar value. Ends that are not written are not given here.
Value kind: pIC50

> print(dat)
           seq.string  value.kind  sign  endpoint.value
1  TINAWIKGV [TV9p29]       pIC50     =            6.57
2   KINAWIKVV [TV9p6]       pIC50     <            5.00
3  TINAWIKVV [TV9p30]       pIC50     =            5.21
4   KINAWIKGV [TV9p5]       pIC50     =            4.43
